read-out: JUN Transcription Factor, JUN (gene 3725); experiment: LTEA_HepaRG_JUN: Life Technologies and Expression Analysis (LTEA) Assay for JUN Transcription Factor using HepaRG (AID 2283513); conditions: mRNA level, 48 h; actives raise or lower the signal
Active and inactive are the calls of the source. The calls were made as follows: active = hit-call score of the fitted dose curve at least 0.9, where 1 is the maximum; inactive = score below 0.9.
API: response.call in active, inactive

# example entries with known answers
[
  {
    "structure": "O=C(N[C@H]1CN2CCC1CC2)c1ccc2c(c1)OCCO2",
    "class": "inactive"
  },
  {
    "structure": "Oc1cc(Cl)c(Cl)cc1Cl",
    "class": "inactive"
  },
  {
    "structure": "CC(C)(C)c1ccccc1O",
    "class": "inactive"
  },
  {
    "structure": "Clc1cccc(Cl)c1Cl",
    "class": "inactive"
  },
  {
    "structure": "N#Cc1cccnc1",
    "class": "inactive"
  }
]

Hi, do you know how "CCCCCCCCCCCCc1cccc(S(=O)(=O)O)c1" came out in this test? inactive

# lookup: test call for "OCCN(CCO)CCO" inactive

Each molecule tested received a call. Report the one for "Oc1c(Cl)cc(Cl)cc1Cl" . inactive

What was the test verdict on "O=C(O)C1(c2ccc3c(c2)OC[C@H](Cc2ccc(-c4ccccc4)cc2)[C@H]3O)CCCC1" ? active

Could you check what this test reported for "CC(C)O.CC(C)O.OCCN(CCO)CCO.OCCN(CCO)CCO.[Ti]" ? inactive

---

test: CCTE_Deisenroth_AIME_384WELL_CTox_Active: Cytotoxicity Assessment (CTOX) in CCTE's 384-well Estrogen Receptor Transactivation Assay with AIME metabolic competence (metabolism positive), Deisenroth Lab (AID 2284037);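 also: chemicals first conditioned 2 h by alginate-bound induced rat liver S9 before cells; activity means signal loss indicating cell death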
Records with an inconclusive call do not appear. Active and inactive are the calls of the source. Rule for the calls: active = hit-call score of the fitted dose curve at least 0.9, where 1 is the maximum; inconclusive = response in the unintended direction; inactive = score below 0.9.
reported-property: AC50

Sample records with AC50:
[
  {
    "structure": "O=c1[nH]c(=O)n(Cl)c(=O)n1Cl",
    "AC50": "inactive"
  },
  {
    "structure": "CCCCCCCCCCCCc1cccc(S(=O)(=O)O)c1",
    "AC50": "inactive"
  },
  {
    "structure": "CCC[CH2][Sn]([Cl])([Cl])[CH2]CCC",
    "AC50": "13.6 µM (active)"
  },
  {
    "structure": "CCOc1ccc(N)cc1",
    "AC50": "inactive"
  },
  {
    "structure": "O=C(CBr)c1ccc(O)cc1",
    "AC50": "inactive"
  },
  {
    "structure": "N#CS",
    "AC50": "inactive"
  },
  {
    "structure": "Cc1cc(Cl)ccc1OCCCC(=O)O",
    "AC50": "inactive"
  },
  {
    "structure": "CCN(CCO)CCO",
    "AC50": "inactive"
  }
]

Give measured AC50 for every item shown.
1. CC(C)O.CC(C)O.OCCN(CCO)CCO.OCCN(CCO)CCO.[Ti]
2. Oc1cc(Cl)c(Cl)cc1Cl

inactive
100 µM (active)

---

assay: CEETOX_H295R_11DCORT: CeeTox H295R High-throughput Steroidogenesis Assay for 11-Deoxycortisol (11DCORT) (AID 2283432); details: actives raise or lower the signal
The source made the active and inactive calls. How the source made its calls: active means hit-call score of the fitted dose curve at least 0.9, where 1 is the maximum; inactive means score below 0.9.
// allowed return values: YES = active, NO = inactive

[
  {
    "compound": "Cc1cc(Cl)ccc1O",
    "class": "NO"
  },
  {
    "compound": "OC(Cc1ccccc1Cl)(Cn1[nH]cnc1=S)C1(Cl)CC1 (centres undefined)",
    "class": "NO"
  },
  {
    "compound": "CCCCCCCCCCCCN(C)C",
    "class": "NO"
  },
  {
    "compound": "CC(C)=CC1C(C(=O)OCc2cccc(Oc3ccccc3)c2)C1(C)C (centres undefined)",
    "class": "YES"
  },
  {
    "compound": "O=[N+]([O-])c1ccc(Nc2ccccc2)cc1",
    "class": "NO"
  }
]

I'd appreciate the recorded outcome for "CC(C)(C)c1ccccc1O" from this test. NO

# lookup: test call for "COC(=O)Nc1cccc(OC(=O)Nc2cccc(C)c2)c1" YES

How did this test come out for O=S1OC[C@@H]2[C@H](CO1)[C@]1(Cl)C(Cl)=C(Cl)[C@@]2(Cl)C1(Cl)Cl (some centres undefined) ? YES

Hello, I am checking results. What call was entered for "CCOP(=O)(OCC)OC(=CCl)c1ccc(Cl)cc1Cl" ? YES

---

Read-out: Interleukin-8 (IL8), CXCL8 (gene 3576)
Assay: BSK_3C_IL8: BioMAP Diversity Plus: 3C Assay for Interleukin-8 (IL8) Biomarker Activity (AID 2283020)
Conditions: primary human endothelial cells (HUVEC); actives raise or lower the signal
Procedure: BSK_3C is a cell-based, multiplexed-readout assay that uses umbilical vein endothelium, a human vascular primary cell, with measurements taken at 24 hours after chemical dosing in a 96-well plate.BSK_3C_IL8 is an assay component measured in the BSK_3C assay. It measures IL-8 antibody related to regulation of gene expression using ELISA technology.Data from the assay component BSK_3C_IL8 was analyzed into 1 assay endpoint. […]
Active and inactive are the calls of the source. How the source made its calls: active means hit-call score of the fitted dose curve at least 0.9, where 1 is the maximum; inactive means score below 0.9.
Give your call using only these classes: active, inactive

[
  {
    "compound": "C=CC(Cl)CCl (centres undefined)",
    "class": "inactive"
  }
]

Just curious, what result did "OCCN(CCO)CCO" get here? inactive

Call for entry "Cc1ccc2nc3sc(=O)sc3nc2c1" : active

For "O=[N+]([O-])c1cccc2ccccc12" , which call appears in the assay record? inactive

I'd appreciate the recorded outcome for OC(Cc1ccccc1Cl)(Cn1[nH]cnc1=S)C1(Cl)CC1 (centres undefined) from this test. inactive

What did this assay record as the result for "O=C(Cc1ccccc1)OCCc1ccccc1" ? inactive

Status in this test for "CCOC(=O)CC(=O)CCl" ? active

Recorded call for "Cc1ccc(OP(=O)(Oc2ccc(C)cc2C)Oc2ccc(C)cc2C)c(C)c1" ? inactive

Answer briefly: the call reported for "Oc1cc(Cl)c(Cl)cc1Cl" in this assay. active

Record request — test call for "O=C1C=CC(=O)c2ccccc21" active

Recorded test call requested for CC(C)(COCC1CO1)COCC1CO1 (centres undefined) inactive

Please let me know the test result on file for "CC(C)N(C(=O)CCl)c1ccccc1" . inactive

Could you please tell me the result logged for "CCCCOC(=O)COC(=O)c1ccccc1C(=O)OCCCC" in this assay? inactive

Assay outcome for "O=C(O)C1(c2ccc3c(c2)OC[C@H](Cc2ccc(-c4ccccc4)cc2)[C@H]3O)CCCC1" : what was it? active

---

biological target: Nuclear receptor subfamily 1 group I member 2 (Homo sapiens); test: ATG_PXR_TRANS: Attagene TRANS-FACTORIAL HepG2 Assay for human Pregnane X Receptor (PXR) (AID 2283008)
Inconclusive results are not listed. Calls of active or inactive are those of the source. Rule for the calls: active = hit-call score of the fitted dose curve at least 0.9, where 1 is the maximum; inconclusive = response in the unintended direction; inactive = score below 0.9.
I would appreciate it if you answered using one of these outcomes: active, inactive

Worked examples, 6 compounds total:
[
  {
    "structure": "Brc1ccc(Oc2c(Br)cc(Br)cc2Br)c(Br)c1",
    "subject-of-test": "Nuclear receptor subfamily 1 group I member 2 (Homo sapiens)",
    "class": "inactive"
  },
  {
    "structure": "CCCCCCCCCCCCOS(=O)(=O)O",
    "subject-of-test": "Nuclear receptor subfamily 1 group I member 2 (Homo sapiens)",
    "class": "inactive"
  },
  {
    "structure": "Cc1ccccc1OP(=O)(Oc1ccccc1C)Oc1ccccc1C",
    "subject-of-test": "Nuclear receptor subfamily 1 group I member 2 (Homo sapiens)",
    "class": "active"
  },
  {
    "structure": "Oc1c(Cl)cc(Cl)cc1Cl",
    "subject-of-test": "Nuclear receptor subfamily 1 group I member 2 (Homo sapiens)",
    "class": "inactive"
  },
  {
    "structure": "C=CCCl",
    "subject-of-test": "Nuclear receptor subfamily 1 group I member 2 (Homo sapiens)",
    "class": "inactive"
  },
  {
    "structure": "O=C(O)COc1cc(Cl)c(Cl)cc1Cl",
    "subject-of-test": "Nuclear receptor subfamily 1 group I member 2 (Homo sapiens)",
    "class": "inactive"
  }
]

Hi, do you know how "Nc1ccc(Br)cc1" came out in this test? inactive

I'd appreciate the recorded outcome for "OC[C@@H](O)[C@H]1O[C@@H]2O[C@H](C(Cl)(Cl)Cl)O[C@@H]2[C@H]1O" from this test. inactive

Assay outcome for "CS(=O)(=O)c1ccc(C(=O)C2C(=O)CCCC2=O)c(Cl)c1COCC(F)(F)F" : what was it? inactive

Each compound tested received a call. Report the one for "C=C(C)C(=O)OCCCCOC(=O)C(=C)C" . inactive

Which outcome was assigned to "O=C(O)c1cc(I)cc(I)c1I" in this test? inactive

Answer briefly: the call reported for "CCOP(=S)(OCC)O/N=C(\C#N)c1ccccc1" in this assay. active

Dear all, I need the recorded test outcome for "CCCCN(CCCC)C(=S)S" , thank you. active

Please let me know the test result on file for "c1ccc2c(c1)Oc1ccccc1O2" . inactive

From: PubChem BioAssay (EPA / NIEHS)
